- Target Under Test: cdk4/D (Homo sapiens, UniProt P11802)
- Sequence (P11802 whole entry): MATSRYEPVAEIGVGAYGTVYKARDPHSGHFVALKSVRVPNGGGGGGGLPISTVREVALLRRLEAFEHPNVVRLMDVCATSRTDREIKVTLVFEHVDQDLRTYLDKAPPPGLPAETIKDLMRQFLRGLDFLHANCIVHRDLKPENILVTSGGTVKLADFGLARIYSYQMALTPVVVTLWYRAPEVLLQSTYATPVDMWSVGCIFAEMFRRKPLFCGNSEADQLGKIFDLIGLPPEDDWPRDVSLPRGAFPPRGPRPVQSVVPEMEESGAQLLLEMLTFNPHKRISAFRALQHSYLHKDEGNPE
- Sequence (P24385 whole entry, further chain): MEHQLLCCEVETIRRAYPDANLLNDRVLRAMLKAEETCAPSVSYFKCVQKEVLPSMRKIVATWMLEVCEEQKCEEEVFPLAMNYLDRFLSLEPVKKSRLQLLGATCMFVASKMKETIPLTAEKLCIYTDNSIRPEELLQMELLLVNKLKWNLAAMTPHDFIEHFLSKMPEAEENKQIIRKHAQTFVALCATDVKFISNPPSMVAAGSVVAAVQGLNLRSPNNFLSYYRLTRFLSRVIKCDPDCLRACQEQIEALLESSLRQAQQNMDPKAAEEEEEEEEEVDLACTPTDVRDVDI
- Assay Remarks: Cyclin-dependent kinase 4 (cdk4) enzyme assay, 32P incorporation into retinoblastoma
- Assay type: biochemical
- Condition: Table 1; 25 µM ATP, retinoblastoma substrate
- Procedure: A typical assay, for instance, measures inhibitory activity against the cyclin D dependent kinase 4 enzyme (cdk4/D). […] The cdk 4 assay was carried out as follows. All components except the ATP were added to the wells, and the plate was placed on a plate mixer for 2 minutes. […] The wells were then washed five times with 0.2 mL of 10% TCA and ^32P incorporation was determined with a beta plate counter (Wallac Inc., Gaithersburg, MD).
Observable: IC50 (µM)
Number in µM, nothing else.

Any idea what IC50 came out for "CCC(CC)n1c(=O)ccc2cnc(Nc3ccccc3)nc21" on cdk4/D (Homo sapiens, UniProt P11802)?
0.141

Any idea what IC50 came out for "Cn1c(=O)ccc2cnc(NCCc3ccccn3)nc21" on cdk4/D (Homo sapiens, UniProt P11802)?
45

Any idea what IC50 came out for "CC(C)n1c(=O)ccc2cnc(Nc3ccc(N4CCN(C)CC4)cc3)nc21" on cdk4/D (Homo sapiens, UniProt P11802)?
0.032

Any idea what IC50 came out for O=c1ccc2cnc(Nc3ccccc3)nc2n1C1CC2CCC1C2 (stereo not shown) on cdk4/D (Homo sapiens, UniProt P11802)?
0.038

Any idea what IC50 came out for "CCN1C(=O)CCc2cnc(Nc3ccccc3)nc21" on cdk4/D (Homo sapiens, UniProt P11802)?
4.3

Any idea what IC50 came out for "O=c1ccc2cnc(Nc3ccccc3)nc2n1C1CCCC1" on cdk4/D (Homo sapiens, UniProt P11802)?
0.21

Any idea what IC50 came out for "CCn1c(=O)ccc2cnc(Nc3ccc(OC)c(F)c3)nc21" on cdk4/D (Homo sapiens, UniProt P11802)?
1

Any idea what IC50 came out for "CCn1c(=O)ccc2cnc(NC(C)C)nc21" on cdk4/D (Homo sapiens, UniProt P11802)?
3.7

Any idea what IC50 came out for O=c1ccc2cnc(Nc3ccccc3)nc2n1CC1CO1 (stereo not shown) on cdk4/D (Homo sapiens, UniProt P11802)?
5

Any idea what IC50 came out for "CCn1c(=O)ccc2cnc(Nc3ccc(OCCOC)cc3)nc21" on cdk4/D (Homo sapiens, UniProt P11802)?
0.8

###

- Target Under Test: cdk2/cyclinA (Homo sapiens, UniProt P24941)
- Assay Remarks: Cyclin-dependent kinase assay (cdk2/cyclinA)
- Condition: Table 1
What pIC50 was measured for each of the following?
Reminder that pIC50 means the negative base-10 logarithm of the concentration expressed in mol/L.

Name the reported pIC50 value associated with the compound Cn1c(=O)ccc2cnc(NCc3ccccc3)nc21 [Example 63]
4.42

Name the reported pIC50 value associated with the compound CCNc1ncc2ccc(=O)n(CC)c2n1 [Example 45]
5.61

Name the reported pIC50 value associated with the compound CC(C)n1c(=O)ccc2cnc(Nc3ccccc3)nc21 [Example 43]
7.51

Name the reported pIC50 value associated with the compound O=c1ccc2cnc(Nc3ccccc3)nc2n1C1CCCCC1 [Example 131]
7.10

###

- Target Under Test: cdk2/cyclinE (Homo sapiens)
- Assay Remarks: Cyclin-dependent kinase assay (cdk2/cyclinE)
- Condition: Table 1; read-out: cdk2/E IC50
What pIC50 was measured for each of the following?
Reminder that pIC50 means the negative base-10 logarithm of the concentration expressed in mol/L.

Name the reported pIC50 value associated with the molecule "CCCn1c(=O)ccc2cnc(Nc3ccccc3)nc21"
6.95

Name the reported pIC50 value associated with the molecule "CCNc1ncc2ccc(=O)n(CC)c2n1"
5.41

Name the reported pIC50 value associated with the molecule "CCn1c(=O)ccc2cnc(Nc3ccc(OC)cc3)nc21"
6.37

Name the reported pIC50 value associated with the molecule "CCn1c(=O)ccc2cnc(Nc3ccc(N4CCN(C)CC4)cc3)nc21"
5.92

Name the reported pIC50 value associated with the molecule "CCN(CC)CCOc1ccc(Nc2ncc3ccc(=O)n(C(C)C)c3n2)cc1"
6.10

Name the reported pIC50 value associated with the molecule "CCn1c(=O)ccc2cnc(NC3CCCCC3)nc21"
6.23

Name the reported pIC50 value associated with the molecule "CCn1c(=O)ccc2cnc(Nc3ccc(F)cc3)nc21"
6.55

Name the reported pIC50 value associated with the molecule "CCC(CC)n1c(=O)ccc2cnc(Nc3ccc(N4CCN(C)CC4)cc3)nc21"
7.17

Name the reported pIC50 value associated with the molecule "CCn1c(=O)ccc2cnc(Nc3ccccc3)nc21"
6.39

Name the reported pIC50 value associated with the molecule "CCn1c(=O)ccc2cnc(Nc3cccc(OC(F)(F)C(F)F)c3)nc21"
5.92

Name the reported pIC50 value associated with the molecule "Cn1c(=O)ccc2cnc(Nc3ccccc3)nc21"
6.07

Name the reported pIC50 value associated with the molecule "CCN(CC)c1ccc(Nc2ncc3ccc(=O)n(CC)c3n2)cc1"
5.53

Name the reported pIC50 value associated with the molecule "CC(C)n1c(=O)ccc2cnc(Nc3ccc(N4CCN(C)CC4)cc3)nc21"
6.57

Name the reported pIC50 value associated with the molecule "O=c1ccc2cnc(Nc3ccccc3)nc2n1C1CCCC1"
6.96

Name the reported pIC50 value associated with the molecule "CCn1c(=O)ccc2cnc(Nc3ccc(N(C)C)cc3)nc21"
5.75

Name the reported pIC50 value associated with the molecule "O=c1ccc2cnc(Nc3ccccc3)nc2n1C1CCCCCC1"
7.62

Name the reported pIC50 value associated with the molecule O=c1ccc2cnc(Nc3ccccc3)nc2n1C1CC2CCC1C2 (centres unmarked)
6.76
